Quick reference: Total Cell Count of the listed items.
# Test system: Fibroblast
# Assay info: Multiplex assay against human fibroblast
# Assay type: toxicity, cell-based
# Reported conditions: 24 h, 10 µM, compound concentration 10 uM, replicate 2
Measurement kind: Total Cell Count

INSERT INTO results (molecule, measurement_kind, recorded_number) VALUES
  ('CC(C)COc1ccc(CNC(=O)N(Cc2ccc(F)cc2)C2CCN(C)CC2)cc1', 'Total Cell Count', 167),
  ('O=C1[C@H](Cc2ccc(O)cc2)N2C(=O)CCN(C(=O)NCc3ccccc3)[C@H]2CN1Cc1cccc2ccccc12', 'Total Cell Count', 137),
  ('Cl.NCCc1ccc(O)c(O)c1 [DOPAMINE HYDROCHLORIDE]', 'Total Cell Count', 126),
  ('CC(/C=C1\SC(=S)N(CCCC(=O)Nc2ccc(C(=O)O)c(O)c2)C1=O)=C\c1ccccc1', 'Total Cell Count', 120),
  ('O=C(NCCN1CCC(n2c(=O)[nH]c3cc(Cl)ccc32)CC1)c1ccc(F)cc1 [HALOPEMIDE]', 'Total Cell Count', 140),
  ('N#Cc1c(Oc2cccc(OS(=O)(=O)CCCC(F)(F)F)c2)cccc1C(F)(F)F', 'Total Cell Count', 127),
  ('CC(C)c1noc(N2CCC(COc3ccc(-c4ccc(S(C)(=O)=O)cc4)nc3)CC2)n1', 'Total Cell Count', 123),
  ('COc1cccc2c1c(NS(=O)(=O)c1ccc(Cl)s1)nn2Cc1cccc(CNC(=O)C(C)(C)O)c1', 'Total Cell Count', 175);

Taken from ChEMBL document CHEMBL5058577.
